meta.source: patent US20200017592A1

This section presents binders with their documented t1/2 values.
experimentalSystem: T1, human IL-36R extracellular domain expressed with a C-terminal myc-myc-hexahistidine tag (hIL-36R-MMH) (human, UniProt Q9HB29 20-337)
T1 construct: also called Human IL-36R-MMH; REGN2105
T1 sequence (Q9HB29 other isoform, or with tags, fused parts or gaps limits assumed): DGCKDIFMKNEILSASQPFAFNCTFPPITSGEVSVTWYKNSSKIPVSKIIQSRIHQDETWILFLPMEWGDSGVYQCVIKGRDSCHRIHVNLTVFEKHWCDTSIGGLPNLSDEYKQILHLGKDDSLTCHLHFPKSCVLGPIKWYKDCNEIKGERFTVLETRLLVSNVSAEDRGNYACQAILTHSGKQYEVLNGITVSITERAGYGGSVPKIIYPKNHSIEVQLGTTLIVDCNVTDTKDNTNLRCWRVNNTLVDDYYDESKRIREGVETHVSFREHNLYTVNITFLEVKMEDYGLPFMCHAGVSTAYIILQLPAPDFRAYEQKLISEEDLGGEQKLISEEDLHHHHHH
procedureDetails: SPR Biacore T200, mAb captured on anti-hFc, 37C, PBS-T pH 6.0 running buffer
Just so you know, I need the unit written after the number.

# count of solved cases: 3
binder="H4H14758P (antibody, human IgG4 S228P, kappa, V domains shown, Fully human anti-IL-36R antibody) VH: EVQLVESGGGLVQPGRSLRLSCAASGFTFDDYAMHWVRQAPGKGLEWVSSVRWNGGIIGYADSVKGRFTISRDNAKNSLYLQMNSLRPEDTALYYCAKDIGDVLTGYYGEYGMDVWGQGTTVTVSS VL: DIQMTQSPSSLSASVGDRVTIACRASQSITTYLNWYQQKPGKAPKLLIYAASSLQSGVPSRFSGSGSGTDFTLTISSLQPEDFATYYCQQSYISPYTFGQGTKLEIKR" measurement="3 min"
binder="H4H14731P (antibody, human IgG4 S228P, kappa, V domains shown, Fully human anti-IL-36R antibody) VH: QLQLQESGPGLVKPSETLSLTCTVSGGSISSSNYYWGWIRQPPGKRLEWIGSIYYSGSTYYNPSLKTRVTISVDTSKNQFSLKLTSVTAADTAVYYCAREEAAALTHFDFWGQGTLVTVSS VL: DIQMTQSPSSLSASVGDRVTITCRASQSISNYLNWYQQKPGKAPKLLIFAASSLQSGVPSRFSGSGSGTDFTLTISSLQPEDFATYYCQHSHSSHPITFGQGTRLEIKR" measurement="6 min"
binder="H4H14706P2 (antibody, human IgG4 S228P, kappa, V domains shown, Fully human anti-IL-36R antibody) VH: EVQLVESGGGLVQPGRSLRLSCTASGFTFDDYAIHWVRQSPGKGLEWVSVISWNSDVIGYADSVKGRFTISRDNAKNSLYLQMNSLRAEDTALYYCAKGYNWNFFDYWGQGTLVTVSS VL: EIVLTQSPATLSLSPGERATLSCRASQSVSSYLAWYQQKPGQAPRLLIYNAANRATDIPARFSGSGSGTDFTLTISSLEPEDFAVYYCQQRSNWPLTFGGGTKVEIKR" measurement="5 min"

Proceeding to the next binder to report its t1/2.
Query: Which t1/2 reading was recorded for the binder H4H14708P2 (antibody, human IgG4 S228P, kappa, V domains shown, Fully human anti-IL-36R antibody) VH: EVQLVESGGDLVQPGRSLRLSCAASGFTFDDYAMHWVRQAPGKGLEWVSVISWNSDVIAYSDSVKGRFTISRDNAKNSLYLQMNSLRTEDTALYYCTKGHKWSFFDYWGQGTLVTVSS VL: EIVLTQSPATLSLSPGERATLSCRASQSISSYLAWYQQKPGQAPRLLIFNVANRATDIPARFSGSGSGTDFTLTISSLEPEDFAVYYCQQRSNWPLTFGGGTKVEIKR ?
Reply: 3 min
